B1: Twister Ribozyme (parent)
chain: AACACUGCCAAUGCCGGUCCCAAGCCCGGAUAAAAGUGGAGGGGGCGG

# Variants of: B1
# Method: self-cleavage, relative activity (ratio to wild type); higher = more cleavage; co-transcriptional
Response field class: string, computed from recorded self-cleavage by ranges low bracket = under 0.1, middle bracket = from 0.1 up to 0.3, high bracket = 0.3 and over

Study these solved cases before continuing.
* A23C A35G | low bracket
* C19U G48C | high bracket
* G13C C26A | low bracket
* G36U G48C | high bracket

Attention now shifts to the item below.
[in] # bin lookup: classify G36A G42A by its self-cleavage
[out] middle bracket

Reference source for all entries: the RNAGym collection of RNA variant scans (doi:10.7554/elife.80360)
